In this section, each of the compounds is paired with its reported log10(IC50).
TARGET_UNDER_TEST: Glucose-6-phosphate 1-dehydrogenase (Homo sapiens, UniProt P11413)
Sequence (P11413 whole entry): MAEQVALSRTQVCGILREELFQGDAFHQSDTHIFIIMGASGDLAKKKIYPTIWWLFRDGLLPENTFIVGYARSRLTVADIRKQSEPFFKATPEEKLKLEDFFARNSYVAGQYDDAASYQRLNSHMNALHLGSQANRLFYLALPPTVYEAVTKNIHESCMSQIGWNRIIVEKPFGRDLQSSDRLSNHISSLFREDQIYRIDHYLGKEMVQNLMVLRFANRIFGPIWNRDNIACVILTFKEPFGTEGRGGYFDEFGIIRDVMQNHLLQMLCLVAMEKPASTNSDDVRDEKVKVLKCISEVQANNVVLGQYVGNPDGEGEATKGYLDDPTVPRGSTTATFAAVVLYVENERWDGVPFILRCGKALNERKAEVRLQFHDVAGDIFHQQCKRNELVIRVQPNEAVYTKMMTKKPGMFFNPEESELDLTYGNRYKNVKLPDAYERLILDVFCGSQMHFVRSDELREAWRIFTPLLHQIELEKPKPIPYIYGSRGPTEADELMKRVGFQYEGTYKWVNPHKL
EXPERIMENTAL_DETAILS: Inhibition of G6PD (unknown origin) assessed as reduction in 6-phospho-D-glucono-1,5-lactone and NADPH production using glucose-6-phosphate and NADP+ as substrate incubated for 15 mins by UV absorption photometry assay
In our notation, the value equals log10 of IC50 in µM.

# example entries with known answers
C[C@]12CC[C@H](O)CC1=CC[C@@H]1[C@@H]2CC[C@]2(C)C(=O)CC[C@@H]12	1.10
COc1cc(O)c2c(c1)oc(=O)c1c3cc(O)c(O)cc3oc21	0.71
O=C(/C=C/c1ccc(O)c(O)c1)O[C@@H]1C[C@](O)(C(=O)O)C[C@@H](OC(=O)/C=C/c2ccc(O)c(O)c2)[C@H]1O	1.58
OC[C@H]1O[C@@H](Oc2cc(O)cc(/C=C/c3ccc(O)cc3)c2)[C@H](O)[C@@H](O)[C@@H]1O	1.87

Data request: For "O=c1c(O)c(-c2ccc(O)c(O)c2)oc2cc(O)cc(O)c12" , write its log10(IC50).
Data returned: 1.49
